- ASSAY NAME: Stability of ASA in solution
- Format: physicochemical
- CONDITION CONTEXT: assay buffer; pH 7.7 (under assay conditions); read-out: t½ (converted)
READOUT TYPE: half-life (h)
Write the value in h as a bare number.

Task: half-life for N[C@@H](CC=O)C(=O)O [ASA, L-aspartate-β-semialdehyde] ?
Result: 5

Values compiled from patent US20040052799A1.
